Biological target: CYP2C19 (Homo sapiens, UniProt P33261)
Construct: pooled mixed-gender human liver microsomes; from tissue; host or cells: pooled mixed-gender human liver microsomes
Sequence (P33261 whole entry): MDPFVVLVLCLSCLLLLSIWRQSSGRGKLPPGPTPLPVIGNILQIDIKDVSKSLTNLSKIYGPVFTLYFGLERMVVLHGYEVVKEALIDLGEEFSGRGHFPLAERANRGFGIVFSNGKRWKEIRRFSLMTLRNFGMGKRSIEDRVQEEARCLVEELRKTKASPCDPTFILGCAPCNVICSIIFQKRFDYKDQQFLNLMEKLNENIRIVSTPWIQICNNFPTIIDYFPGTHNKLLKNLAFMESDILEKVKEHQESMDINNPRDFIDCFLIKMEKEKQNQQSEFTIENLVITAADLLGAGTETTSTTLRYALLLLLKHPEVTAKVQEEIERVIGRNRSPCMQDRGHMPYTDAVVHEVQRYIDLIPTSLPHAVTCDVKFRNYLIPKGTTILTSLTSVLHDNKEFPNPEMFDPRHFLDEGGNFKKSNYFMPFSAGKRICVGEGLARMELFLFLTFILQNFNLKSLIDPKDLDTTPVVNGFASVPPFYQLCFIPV
Test: CYP2C19 inhibition in pooled human liver microsomes
Format: in vitro ADME
Details: human liver microsomes; S-Mephenytoin 4-hydroxylation; zero-minute preincubation; read-out: Direct inhibition IC50
Procedure: The potential of tepotinib and MSC2571109A to inhibit CYP450 enzymes CYP1A2, 2A6, 2B6, 2C8, 2C9, 2C19, 2D6, 2E1, and 3A4/5 in vitro was evaluated using CYP-catalyzed reactions in pooled mixed-gender human liver microsomes using specific substrates and liquid chromatography/tandem mass spectrometry (LC–MS/MS) readouts. […] Testosterone 6β-hydroxylation was assessed in the MSC2571109A study. […]
Outcome measure: IC50 (µM)

[[record]]
entry_smiles = "CN1CCC(COc2cnc(-c3cccc(Cn4nc(-c5cccc(C#N)c5)ccc4=O)c3)nc2)CC1"
uom = "µM"
measured_value = 30

